# TEST METHOD NOTES: AUClast in C57BL6 mouse at 10 mg/kg, po measured upto 24 hrs by LC-MS/MS analysis
# Assay type: ADME, organism-based
# Design: dose 10 mg/kg, time < 24 hrs, route po
# TEST PARAMETERS: in vivo
# AUC(0-t) at 24 h per entry
I only need the number, in ng·h/mL, no unit after it.

Problem: Note down AUC(0-t) at 24 h recorded for CC(CC(=O)O)c1ccc(OCc2ccc3c(-c4cc(Cl)c(CO)c(Cl)c4)nn(C4CCCC4)c3c2)cc1 (racemic)
Solution: 11700

More entries:
Problem: Give AUC(0-t) at 24 h for the following compound: CC(CC(=O)O)c1ccc(OCc2ccc3c(-c4cc(Cl)c(O)c(Cl)c4)nn(C4CCCC4)c3c2)cc1 (racemic)
Solution: 823

Source listed as ChEMBL document CHEMBL5370654.
